study.target: T1, recombinant human LIGHT-214E, FLAG-tagged extracellular domain (human)
T1 construct: Trimer; Biotinylated in some assays
T1 chain: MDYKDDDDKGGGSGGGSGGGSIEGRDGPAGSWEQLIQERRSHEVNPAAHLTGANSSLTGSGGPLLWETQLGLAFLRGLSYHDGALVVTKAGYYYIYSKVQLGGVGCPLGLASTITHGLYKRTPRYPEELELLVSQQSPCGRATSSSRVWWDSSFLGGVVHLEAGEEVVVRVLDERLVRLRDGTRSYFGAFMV
assay.remarks: HTRF competition, LTβR-Fc binding to Flag-hLIGHT-214E
The following binders are shown together with reported IC50 values.
Answer with the number, then the unit.

14B09 (purified from hybridoma supernatant) (antibody, V domains shown, Murine constant / human variable chimeric IgG, lambda, Protein G purified from hybridoma supernatant) VH: QVQLVQSGAEVKKPGASVKVSCRASGYTFTSYLMHWVRQAPGQRLEWMGWINVGNGNTKYSQKFQGRVTITRDTSASTAYMELSGLRSEDTAVYYCARNYYNWFDPWGQGTLVTVSS VL: QSALTQPASVSGSPGQSITISCTGTSSDVGGYNYVSWYQQHPGKAPKLMIYDVSKRPSGVSNRFSGSKSGNTASLTISGLQAEDEADYYCFSYAGSSTVVFGGGTKLTVL    1.57 nM

Turning to the following binder.
Kindly indicate its recorded IC50. Item: 42A02 (purified from hybridoma supernatant) (antibody, V domains shown, Murine constant / human variable chimeric IgG, lambda, Protein G purified from hybridoma supernatant) VH: EVQLVESGGGLVQPGGSLRLSCAASGFTFSSYVMSWVRQAPGKGLEWVSVISSSGVTTYYADSVKGRFTISRDNSKNTLYLQMNSLRAEETAVYYCAKGNYGSGSFCDYWGQGTPVTVSS VL: SYVLTQPPSVSVAPGKTARITCGGNNIGSKSVHWYQQRPGQAPILVIYYDSDRPSGIPERFSGSNSGNSATLTISRVEAGDEADYHCQVWESSSDHPVFGGGTKLTVL 1.65 nM
